SYSTEM_UNDER_TEST: Prothrombin (Bos taurus)
Rule: Ki below 0.3 µM gives class 1, anything at or above gives class 0.

Solved cases (5 shown):
CC1(C)C2CCC1(CCS(=O)(=O)N[C@H](Cc1cccc(C(=N)N)c1)C(=O)N1CCN(S(C)(=O)=O)CC1)C(=O)C2 (stereo partly specified) ... class 1
N=C(N)c1cccc(CC(NS(=O)(=O)c2ccc3ccccc3c2)C(=O)N2CCN(C(=O)Oc3ccccc3)CC2)c1 (stereo unspecified) ... class 0
N=C(N)c1cccc(CC(NS(=O)(=O)c2ccc3ccccc3c2)C(=O)N2CCN(C(=O)c3ccccc3)CC2)c1 (stereo unspecified) ... class 0
N=C(N)c1cccc(CC(NS(=O)(=O)c2ccc3ccccc3c2)C(=O)N2CCN(C(=O)c3ccc4ccccc4c3)CC2)c1 (stereo unspecified) ... class 0
CS(=O)(=O)N1CCN(C(=O)C(Cc2cccc(C(=N)N)c2)NS(=O)(=O)c2ccccc2)CC1 (stereo unspecified) ... class 1

(Q) Identify whether the compound `CN(C)C(=O)N1CCN(C(=O)[C@H](Cc2cccc(C(=N)N)c2)NS(=O)(=O)c2ccc3ccccc3c2)CC1` records Ki below 0.3 µM.
(A) class 0

====

Form field: pKi (one value per entry).
SYSTEM_UNDER_TEST: Coagulation factor X (Bos taurus, UniProt P00743)
Sequence (P00743 41-180 limits assumed): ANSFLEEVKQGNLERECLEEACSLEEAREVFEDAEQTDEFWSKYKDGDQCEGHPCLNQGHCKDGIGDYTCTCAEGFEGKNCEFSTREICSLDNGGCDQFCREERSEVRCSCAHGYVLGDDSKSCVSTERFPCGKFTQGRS
Sequence (P00743 234-492 limits assumed): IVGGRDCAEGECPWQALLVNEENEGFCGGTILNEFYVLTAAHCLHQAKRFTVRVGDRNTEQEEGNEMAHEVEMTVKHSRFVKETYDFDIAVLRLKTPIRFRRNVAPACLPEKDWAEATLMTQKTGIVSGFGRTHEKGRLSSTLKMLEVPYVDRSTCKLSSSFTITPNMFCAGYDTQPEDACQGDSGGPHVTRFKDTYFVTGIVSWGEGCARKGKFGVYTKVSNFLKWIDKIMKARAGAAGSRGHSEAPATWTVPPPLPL
PROTOCOL_TEXT: Inhibitory activity against coagulation factor X.
pKi field: float, defined as -log10 of concentration (mol/L).

Solved entries (count: 6):
N=C(N)c1cccc(C[C@@H](NS(=O)(=O)c2ccc3ccccc3c2)C(=O)N2CCN(C=O)CC2)c1 ... 5.01
N=C(N)c1cccc(CC(NS(=O)(=O)c2ccc3ccccc3c2)C(=O)N2CCN(C(=O)c3ccccc3)CC2)c1 (stereo unspecified) ... 4.80
CC1CCN(C(=O)C(Cc2cccc(C(=N)N)c2)NS(=O)(=O)c2ccc3ccccc3c2)CC1 (stereo unspecified) ... 4.39
CC(C)c1cc(C(C)C)c(S(=O)(=O)NC(Cc2cccc(C(=N)N)c2)C(=O)N2CCN(S(C)(=O)=O)CC2)c(C(C)C)c1 (stereo unspecified) ... 5.13
N=C(N)c1cccc(C[C@@H](NS(=O)(=O)c2ccc3ccccc3c2)C(=O)N2CCN(CCO)CC2)c1 ... 4.66
Cc1c(C)c(S(=O)(=O)N[C@H](Cc2cccc(C(=N)N)c2)C(=O)N2CCN(S(C)(=O)=O)CC2)c(C)c2c1OC(C)(C)CC2 ... 4.39

(Q) Provide value of pKi for this record tested with Coagulation factor X (Bos taurus, UniProt P00743): CN1CCN(C(=O)C(Cc2cccc(C(=N)N)c2)NS(=O)(=O)c2ccc3ccccc3c2)CC1 (stereo unspecified)
(A) 4.52

====

SYSTEM_UNDER_TEST: Plasminogen (Homo sapiens, UniProt P00747)
Sequence (P00747 97-580 limits assumed): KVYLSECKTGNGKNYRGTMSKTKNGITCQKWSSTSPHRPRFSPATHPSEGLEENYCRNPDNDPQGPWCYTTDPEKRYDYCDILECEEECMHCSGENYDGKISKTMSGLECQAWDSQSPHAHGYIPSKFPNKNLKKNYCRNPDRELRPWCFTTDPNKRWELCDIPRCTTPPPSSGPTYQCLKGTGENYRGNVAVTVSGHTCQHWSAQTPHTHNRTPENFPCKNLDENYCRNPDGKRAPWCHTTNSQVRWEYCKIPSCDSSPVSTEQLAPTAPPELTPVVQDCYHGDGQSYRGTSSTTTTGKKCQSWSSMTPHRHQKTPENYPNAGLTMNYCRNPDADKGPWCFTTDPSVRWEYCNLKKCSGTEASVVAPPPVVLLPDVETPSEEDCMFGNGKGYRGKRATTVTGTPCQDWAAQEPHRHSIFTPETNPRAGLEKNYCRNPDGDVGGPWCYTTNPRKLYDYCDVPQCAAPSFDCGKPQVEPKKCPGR
Sequence (P00747 581-810 limits assumed): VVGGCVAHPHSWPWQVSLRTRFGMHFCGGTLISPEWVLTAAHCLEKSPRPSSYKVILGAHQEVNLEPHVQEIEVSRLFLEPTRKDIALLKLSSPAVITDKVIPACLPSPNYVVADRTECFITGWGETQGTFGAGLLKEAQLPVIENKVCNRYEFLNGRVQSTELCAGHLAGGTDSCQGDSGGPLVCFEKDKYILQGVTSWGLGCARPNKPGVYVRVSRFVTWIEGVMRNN
PROTOCOL_TEXT: Inhibitory activity against Plasmin.
pKi: −log10 of the molar value.
Please note: Y applies when pKi is 5 or greater, and N applies otherwise.

Solved cases (5 shown):
CC1(C)C2CCC1(CCS(=O)(=O)N[C@H](Cc1cccc(C(=N)N)c1)C(=O)N1CCN(S(C)(=O)=O)CC1)C(=O)C2 (some centres not stated) ... N
CC(=O)N1CCN(C(=O)[C@@H](Cc2cccc(C(=N)N)c2)NS(=O)(=O)c2ccc3ccccc3c2)CC1 ... Y
N=C(N)c1cccc(C[C@@H](NS(=O)(=O)c2ccc3ccccc3c2)C(=O)N2CCN(C=O)CC2)c1 ... Y
CN1CCN(C(=O)[C@@H](Cc2cccc(C(=N)N)c2)NS(=O)(=O)c2ccc3ccccc3c2)CC1 ... N
N=C(N)c1cccc(C[C@@H](NS(=O)(=O)c2ccc3ccccc3c2)C(=O)N2CCN(CCO)CC2)c1 ... N

For the next question, use this compound.
(Q) Threshold query (pKi >= 5) on `CN(C)C(=O)N1CCN(C(=O)[C@@H](Cc2cccc(C(=N)N)c2)NS(=O)(=O)c2ccc3ccccc3c2)CC1`
(A) Y

Data origin, for the record: ChEMBL document CHEMBL1130155
